test system: CNE; assay: Solid tumor cell growth inhibition, MTT, 72 h; type: cell-based, human; conditions: Homo sapiens, CNE; 72 h, MTT
readoutKind: IC50
Show the value, then the unit it is measured in.

C=C1C(=O)[C@]23[C@H](OC(=O)c4cccs4)[C@H]1CC[C@H]2[C@@]12CO[C@@]3(O)[C@@H](O)[C@@H]1C(C)(C)CCC2=O    1.33 µg/mL
C=C1C(=O)[C@]23[C@H](OC(=O)/C=C/c4ccccc4)[C@H]1CC[C@H]2[C@@]12CO[C@@]3(O)[C@@H](O)[C@@H]1C(C)(C)CC[C@@H]2OC(C)=O    1.32 µg/mL

Quick note, IC50 for `C=C1C(=O)[C@]23[C@H](OC(=O)c4cccnc4)[C@H]1CC[C@H]2[C@@]12CO[C@@]3(O)[C@@H](O)[C@@H]1C(C)(C)CCC2=O` landed at 2.26 µg/mL

====

tested on: MG-63; assay: Solid tumor cell growth inhibition, MTT, 72 h; format: cell-based; details: Homo sapiens
param class (str): category from IC90; see ranges lo = under 0.9 µg/mL, mid = from 0.9 µg/mL up to 3 µg/mL, hi = 3 µg/mL and over

Consider the following illustrative entries.
C=C1C(=O)[C@]23[C@H](O)[C@H]1CC[C@H]2[C@@]12CO[C@]3(O)[C@@H](O)[C@@H]1C(C)(C)CC[C@@H]2O [OR, Oridonin]    hi
C=C1C(=O)[C@]23[C@H](OC(=O)C4CCN(S(=O)(=O)c5ccccc5[N+](=O)[O-])CC4)[C@H]1CC[C@H]2[C@@]12CO[C@@]3(O)[C@@H](O)[C@@H]1C(C)(C)CCC2=O [BS-OR-034]    hi
C=C1C(=O)[C@]23[C@H](OC(=O)c4ccccc4Br)[C@H]1CC[C@H]2[C@@]12CO[C@@]3(O)[C@@H](O)[C@@H]1C(C)(C)CCC2=O [BS-OR-020]    hi
C=C1C(=O)[C@]23[C@H](OC(=O)c4ccccc4)[C@H]1CC[C@H]2[C@@]12CO[C@@]3(O)[C@@H](O)[C@@H]1C(C)(C)CCC2=O [BS-OR-001]    mid
C=C1C(=O)[C@]23[C@H](OC(=O)/C=C/c4ccccc4)[C@H]1CC[C@H]2[C@@]12CO[C@@]3(O)[C@@H](O)[C@@H]1C(C)(C)CCC2=O [BS-OR-019]    lo

Classify this compound: C=C1C(=O)[C@]23[C@H](OC(=O)c4ccc(OC)cc4)[C@H]1CC[C@H]2[C@@]12CO[C@@]3(O)[C@@H](O)[C@@H]1C(C)(C)CCC2=O [BS-OR-005] lo

Dear colleague, I would appreciate it if you could identify the bin for C=C1C(=O)[C@]23[C@H](OC(=O)C4CCC(NC(=O)c5ccccn5)CC4)[C@H]1CC[C@H]2[C@@]12CO[C@@]3(O)[C@@H](O)[C@@H]1C(C)(C)CCC2=O (stereo partly drawn) [BS-OR-083] and reply at your convenience. mid

Which bin should I file C=C1C(=O)[C@]23[C@H](OC(=O)c4cccs4)[C@H]1CC[C@H]2[C@@]12CO[C@@]3(O)[C@@H](O)[C@@H]1C(C)(C)CCC2=O [BS-OR-007] under? mid

Each compound maps to one class by IC90. Which class for C=C1C(=O)[C@]23[C@H](OC(=O)c4ccc(Cl)cc4)[C@H]1CC[C@H]2[C@@]12CO[C@@]3(O)[C@@H](O)[C@@H]1C(C)(C)CCC2=O [BS-OR-010] ? mid

Please let me know in which category the item C=C1C(=O)[C@]23[C@H](OC(=O)C4CCN(S(=O)(=O)c5ccccc5)CC4)[C@H]1CC[C@H]2[C@@]12CO[C@@]3(O)[C@@H](O)[C@@H]1C(C)(C)CCC2=O [BS-OR-032] belongs. mid

====

Answer each item with its documented IC90.
tested on: RKO; assay: Solid tumor cell growth inhibition, MTT, 72 h; type: cell-based; conditions: Homo sapiens
Field: value (include unit after the number)

Example cases with answers are listed next.
C=C1C(=O)[C@]23[C@H](OC(=O)C4CCN(S(=O)(=O)c5ccccc5)CC4)[C@H]1CC[C@H]2[C@@]12CO[C@@]3(O)[C@@H](O)[C@@H]1C(C)(C)CCC2=O    1.99 µg/mL
C=C1C(=O)[C@]23[C@H](OC(=O)C4CC4)[C@H]1CC[C@H]2[C@@]12CO[C@@]3(O)[C@@H](O)[C@@H]1C(C)(C)CCC2=O    1.91 µg/mL
C=C1C(=O)[C@]23[C@H](OC(=O)c4ccc(Cl)cc4)[C@H]1CC[C@H]2[C@@]12CO[C@@]3(O)[C@@H](O)[C@@H]1C(C)(C)CCC2=O    0.95 µg/mL
C=C1C(=O)[C@]23[C@H](OC(=O)c4cccnc4)[C@H]1CC[C@H]2[C@@]12CO[C@@]3(O)[C@@H](O)[C@@H]1C(C)(C)CCC2=O    1.44 µg/mL
C=C1C(=O)[C@]23[C@H](OC(=O)c4ccc(C)cc4)[C@H]1CC[C@H]2[C@@]12CO[C@@]3(O)[C@@H](O)[C@@H]1C(C)(C)CCC2OC(C)=O (some centres unmarked)    0.88 µg/mL

Give IC90 for each listed item.
1. C=C1C(=O)[C@]23[C@H](OC(=O)c4ccccc4)[C@H]1CC[C@H]2[C@@]12CO[C@@]3(O)[C@@H](O)[C@@H]1C(C)(C)CCC2=O
2. C=C1C(=O)[C@]23[C@H](OC(=O)c4ccc(OC)cc4)[C@H]1CC[C@H]2[C@@]12CO[C@@]3(O)[C@@H](O)[C@@H]1C(C)(C)CCC2OC(C)=O (some centres unmarked)
3. C=C1C(=O)[C@]23[C@H](OC(=O)/C=C/c4ccccc4)[C@H]1CC[C@H]2[C@@]12CO[C@@]3(O)[C@@H](O)[C@@H]1C(C)(C)CCC2=O
4. C=C1C(=O)[C@]23[C@H](OC(=O)c4cccs4)[C@H]1CC[C@H]2[C@@]12CO[C@@]3(O)[C@@H](O)[C@@H]1C(C)(C)CCC2=O
5. C=C1C(=O)[C@]23[C@H](OC(=O)C4CCC(NC(=O)c5ccccn5)CC4)[C@H]1CC[C@H]2[C@@]12CO[C@@]3(O)[C@@H](O)[C@@H]1C(C)(C)CCC2=O (some centres unmarked)

0.94 µg/mL
0.93 µg/mL
0.89 µg/mL
0.95 µg/mL
1.68 µg/mL

For every item in the list below, what is its measured IC90?
1. C=C1C(=O)[C@]23[C@H](OC(=O)c4ccc(Cl)cc4)[C@H]1CC[C@H]2[C@@]12CO[C@@]3(O)[C@@H](O)[C@@H]1C(C)(C)CC[C@@H]2OC(C)=O
2. C=C1C(=O)[C@]23[C@H](OC(=O)/C=C/c4ccccc4)[C@H]1CC[C@H]2[C@@]12CO[C@@]3(O)[C@@H](O)[C@@H]1C(C)(C)CC[C@@H]2OC(C)=O

1: 0.92 µg/mL; 2: 0.75 µg/mL

For each of the molecules below, state IC90.
1. C=C1C(=O)[C@]23[C@H](OC(=O)c4ccccc4Cl)[C@H]1CC[C@H]2[C@@]12CO[C@@]3(O)[C@@H](O)[C@@H]1C(C)(C)CCC2=O
2. C=C1C(=O)[C@]23[C@H](OC(=O)c4ccccc4Br)[C@H]1CC[C@H]2[C@@]12CO[C@@]3(O)[C@@H](O)[C@@H]1C(C)(C)CCC2=O
3. C=C1C(=O)[C@]23[C@H](O)[C@H]1CC[C@H]2[C@@]12CO[C@]3(O)[C@@H](O)[C@@H]1C(C)(C)CC[C@@H]2O

1. 1.49 µg/mL
2. 1.94 µg/mL
3. 3.96 µg/mL

====

tested on: Hep-2; assay: Solid tumor cell growth inhibition, MTT, 72 h; format: cell-based, human; settings: Homo sapiens, HEp-2; 72 h, MTT
Decide using IC50 alone. Strictly below 2 µg/mL: Y. Equal to or above 2 µg/mL: N.

Example cases with answers are listed next.
C=C1C(=O)[C@]23[C@H](OC(=O)c4cccc(C)c4)[C@H]1CC[C@H]2[C@@]12CO[C@@]3(O)[C@@H](O)[C@@H]1C(C)(C)CCC2=O    N
C=C1C(=O)[C@]23[C@H](OC(=O)c4ccc(C)cc4)[C@H]1CC[C@H]2[C@@]12CO[C@@]3(O)[C@@H](O)[C@@H]1C(C)(C)CCC2OC(C)=O (some centres unmarked)    Y
C=C1C(=O)[C@]23[C@H](OC(=O)/C=C/c4ccccc4)[C@H]1CC[C@H]2[C@@]12CO[C@@]3(O)[C@@H](O)[C@@H]1C(C)(C)CC[C@@H]2OC(C)=O    Y

Consider `C=C1C(=O)[C@]23[C@H](OC(=O)C4CCN(S(=O)(=O)c5cccc([N+](=O)[O-])c5)CC4)[C@H]1CC[C@H]2[C@@]12CO[C@@]3(O)[C@@H](O)[C@@H]1C(C)(C)CCC2=O` . Does its IC50 lie strictly below 2 µg/mL? N

Is IC50 strictly under 2 µg/mL for the entry `C=C1C(=O)[C@]23[C@H](OC(=O)c4ccccc4Cl)[C@H]1CC[C@H]2[C@@]12CO[C@@]3(O)[C@@H](O)[C@@H]1C(C)(C)CCC2=O` ? Y

Lab note: confirm whether the reported IC50 for this compound is below 2 µg/mL, equality not counting. compound: `C=C1C(=O)[C@]23[C@H](OC(=O)C4CCN(S(=O)(=O)CC)CC4)[C@H]1CC[C@H]2[C@@]12CO[C@@]3(O)[C@@H](O)[C@@H]1C(C)(C)CCC2=O` N

Given `C=C1C(=O)[C@]23[C@H](O)[C@H]1CC[C@H]2[C@@]12CO[C@]3(O)[C@@H](O)[C@@H]1C(C)(C)CC[C@@H]2O` , is recorded IC50 strictly lower than 2 µg/mL? N

Determine if `C=C1C(=O)[C@]23[C@H](OC(=O)C4CC4)[C@H]1CC[C@H]2[C@@]12CO[C@@]3(O)[C@@H](O)[C@@H]1C(C)(C)CCC2=O` shows IC50 strictly lower than 2 µg/mL. Y

Input `C=C1C(=O)[C@]23[C@H](OC(=O)c4ccc(Cl)cc4)[C@H]1CC[C@H]2[C@@]12CO[C@@]3(O)[C@@H](O)[C@@H]1C(C)(C)CCC2=O` ; condition: IC50 strictly below 2 µg/mL. Does it hold? Y

Hello, is IC50 of the following compound strictly smaller than 2 µg/mL? `C=C1C(=O)[C@]23[C@H](OC(=O)c4ccc(OC)cc4)[C@H]1CC[C@H]2[C@@]12CO[C@@]3(O)[C@@H](O)[C@@H]1C(C)(C)CCC2=O` Y

I wonder whether `C=C1C(=O)[C@]23[C@H](OC(=O)c4cccs4)[C@H]1CC[C@H]2[C@@]12CO[C@@]3(O)[C@@H](O)[C@@H]1C(C)(C)CCC2=O` has IC50 below 2 µg/mL. Can you tell? Y
